These measurements were taken from patent US8962639B2.

study_system: human KCNQ2 and KCNQ3 (Homo sapiens, UniProt O43525+O43526)
Sequence (O43526 whole entry): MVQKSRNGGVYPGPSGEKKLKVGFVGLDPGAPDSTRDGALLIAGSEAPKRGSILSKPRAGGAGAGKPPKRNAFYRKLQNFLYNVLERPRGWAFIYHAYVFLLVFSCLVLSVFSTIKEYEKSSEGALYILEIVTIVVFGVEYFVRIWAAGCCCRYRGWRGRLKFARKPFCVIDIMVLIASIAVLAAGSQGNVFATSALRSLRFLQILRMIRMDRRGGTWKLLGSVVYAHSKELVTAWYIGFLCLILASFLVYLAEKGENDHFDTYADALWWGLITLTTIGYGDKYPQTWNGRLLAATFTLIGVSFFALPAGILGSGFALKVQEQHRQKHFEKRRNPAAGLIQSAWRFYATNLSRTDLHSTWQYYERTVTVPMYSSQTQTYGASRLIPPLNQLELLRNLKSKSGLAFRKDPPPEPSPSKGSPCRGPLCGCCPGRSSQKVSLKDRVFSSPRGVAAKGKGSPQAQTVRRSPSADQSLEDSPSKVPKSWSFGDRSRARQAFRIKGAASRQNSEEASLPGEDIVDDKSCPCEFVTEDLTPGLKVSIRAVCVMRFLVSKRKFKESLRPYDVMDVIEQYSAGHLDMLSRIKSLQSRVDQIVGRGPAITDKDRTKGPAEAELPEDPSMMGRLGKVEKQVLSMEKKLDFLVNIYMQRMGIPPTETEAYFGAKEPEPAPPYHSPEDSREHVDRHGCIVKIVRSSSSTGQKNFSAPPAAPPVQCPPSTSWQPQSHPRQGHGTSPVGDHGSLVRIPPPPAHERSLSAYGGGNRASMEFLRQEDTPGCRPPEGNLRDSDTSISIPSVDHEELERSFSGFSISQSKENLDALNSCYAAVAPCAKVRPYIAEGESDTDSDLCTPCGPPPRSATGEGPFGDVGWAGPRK
Sequence (O43525 whole entry): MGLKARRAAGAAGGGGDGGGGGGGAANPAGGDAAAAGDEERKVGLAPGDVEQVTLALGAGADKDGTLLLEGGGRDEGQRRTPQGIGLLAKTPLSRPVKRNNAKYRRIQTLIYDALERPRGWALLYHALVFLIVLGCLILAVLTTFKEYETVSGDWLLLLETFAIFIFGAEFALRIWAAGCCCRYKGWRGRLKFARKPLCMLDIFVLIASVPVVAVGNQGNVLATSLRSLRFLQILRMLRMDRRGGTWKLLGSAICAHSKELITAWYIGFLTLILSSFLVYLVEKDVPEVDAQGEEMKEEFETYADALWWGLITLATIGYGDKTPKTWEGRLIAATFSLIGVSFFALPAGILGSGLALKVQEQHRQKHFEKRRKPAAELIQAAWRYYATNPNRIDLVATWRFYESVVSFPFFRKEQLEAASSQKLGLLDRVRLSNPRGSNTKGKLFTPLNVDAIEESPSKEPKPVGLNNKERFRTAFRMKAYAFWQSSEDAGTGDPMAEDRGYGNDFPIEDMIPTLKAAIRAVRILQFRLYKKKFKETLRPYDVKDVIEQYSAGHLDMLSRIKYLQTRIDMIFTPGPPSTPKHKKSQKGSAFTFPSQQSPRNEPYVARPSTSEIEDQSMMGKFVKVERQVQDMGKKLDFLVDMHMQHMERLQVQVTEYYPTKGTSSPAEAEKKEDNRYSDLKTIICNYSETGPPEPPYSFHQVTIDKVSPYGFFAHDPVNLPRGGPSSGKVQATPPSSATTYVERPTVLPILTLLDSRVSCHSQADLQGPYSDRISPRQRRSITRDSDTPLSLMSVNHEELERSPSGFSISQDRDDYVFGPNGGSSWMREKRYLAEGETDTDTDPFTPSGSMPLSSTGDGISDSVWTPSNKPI
test_protocol: KCNQ 2/3 channel activation, thallium flux FLIPR assay (BTC-AM dye) in HEK293 cells
run_conditions: HEK293 cells stably expressing human KCNQ2 and KCNQ3; compound incubated 4 minutes; Tl+ flux fluorescence
pEC50: −log10 of the molar value.
measure: pEC50

The following compounds have reported results that may help.
CCc1cc2c(=O)n(NC(=O)CC34CC5CC(CC(C5)C3)C4)cnc2s1: 6.36
CC(C)c1nc2ccccc2c(=O)n1NC(=O)[C@H]1C[C@@H]2C=C[C@H]1C2 (racemic): 5.65
Cc1nc2sccc2c(=O)n1NC(=O)CC12CC3CC(CC(C3)C1)C2: 5.60

(P) O=C(CC12CC3CC(CC(Cl)(C3)C1)C2)Nn1c(C2CC2)nc2ccccc2c1=O
(Q) O=C(CC12CC3CC(CC(C3)C1)C2)Nn1c(=O)[nH]c2ccccc2c1=O
Param pair: P , Q . Output: the one whose pEC50 is numerically greater. Use the label to indicate which entry you chose. P
(P: 6.80, Q: 5.76)

(a) CC(C)c1nc2ccccc2c(=O)n1NC(=O)CC12CC3CC(CC(Cl)(C3)C1)C2
(b) O=C(Nn1c(-c2ccccc2)nc2ccccc2c1=O)[C@H]1C[C@@H]2C=C[C@H]1C2 (racemic)
Just tell me: smaller pEC50 value, a or b ? # respond with the chosen item's label b
